Test system: leukotriene C4-induced contraction of guinea pig peripheral lung strips
Experiment: Protocol for SRS-A Antagonists: leukotriene C4-induced contraction of guinea pig peripheral lung strips
Settings: 0.2 nM leukotriene C4, read-out: concentration required for 50% inhibition of 0.2 nM leukotriene C4-induced contraction
property_measured: IC50 (nM)

(A) c1ccc(OCc2ccc3ccccc3n2)cc1
(B) COc1ccc(OCc2ccc3ccccc3n2)cc1
Req: Parameter check: reported IC50 is higher for which label, A or B ? Please respond with the label that marks your chosen entry.
Resp: A
(A: 900 nM, B: 300 nM)
